Below is a list of entries, each paired with its recorded IC50 value.
molecular target: JAK1 (Homo sapiens, UniProt P23458); test: JAK kinase inhibitory activity, HTRF biochemical assay
Sequence (P23458 whole entry, species assumed): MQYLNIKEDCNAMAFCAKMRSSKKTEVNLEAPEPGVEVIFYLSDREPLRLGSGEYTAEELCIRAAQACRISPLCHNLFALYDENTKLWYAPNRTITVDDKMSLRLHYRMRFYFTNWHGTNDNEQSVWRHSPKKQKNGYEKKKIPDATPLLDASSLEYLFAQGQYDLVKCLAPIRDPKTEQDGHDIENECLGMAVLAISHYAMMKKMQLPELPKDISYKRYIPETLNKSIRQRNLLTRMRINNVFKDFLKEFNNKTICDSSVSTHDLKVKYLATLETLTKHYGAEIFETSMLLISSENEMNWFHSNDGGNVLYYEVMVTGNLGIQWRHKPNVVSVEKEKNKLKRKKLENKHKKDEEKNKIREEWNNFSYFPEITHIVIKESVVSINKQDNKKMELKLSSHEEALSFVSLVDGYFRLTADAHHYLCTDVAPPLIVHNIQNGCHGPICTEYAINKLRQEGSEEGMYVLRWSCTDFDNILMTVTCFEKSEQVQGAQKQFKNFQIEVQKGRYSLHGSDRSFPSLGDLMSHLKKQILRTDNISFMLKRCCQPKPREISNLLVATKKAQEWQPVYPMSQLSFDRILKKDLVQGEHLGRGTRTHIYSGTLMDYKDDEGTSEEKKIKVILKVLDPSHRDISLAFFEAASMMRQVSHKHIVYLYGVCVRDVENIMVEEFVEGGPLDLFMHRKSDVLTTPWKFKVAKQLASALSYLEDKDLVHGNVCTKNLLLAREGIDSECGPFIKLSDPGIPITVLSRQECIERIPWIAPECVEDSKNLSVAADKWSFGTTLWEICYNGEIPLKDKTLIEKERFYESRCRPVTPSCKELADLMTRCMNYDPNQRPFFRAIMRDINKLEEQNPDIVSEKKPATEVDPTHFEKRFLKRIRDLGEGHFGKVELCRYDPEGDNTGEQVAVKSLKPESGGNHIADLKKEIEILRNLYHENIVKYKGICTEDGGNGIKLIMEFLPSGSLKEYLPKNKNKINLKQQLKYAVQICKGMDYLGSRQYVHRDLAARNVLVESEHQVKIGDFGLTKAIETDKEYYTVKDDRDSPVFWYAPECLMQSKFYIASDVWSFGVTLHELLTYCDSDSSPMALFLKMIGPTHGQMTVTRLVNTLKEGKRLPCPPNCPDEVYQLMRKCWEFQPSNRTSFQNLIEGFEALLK
reported property: IC50

molecule: Cc1cc(-c2cccc3nc(NC(=O)C4CC4)nn23)sc1CN1CCS(=O)(=O)CC1
reported property: IC50
observed: 50 to 500 nM
--
molecule: O=C(Nc1nc2cccc(-c3ccc(CN4CCC(OC(F)(F)F)CC4)s3)n2n1)[C@H]1C[C@@H]1F (relative stereo)
reported property: IC50
observed: > 500 nM
--
molecule: O=C(Nc1nc2cccc(-c3ccc(CN4CCS(=O)(=O)CC4)s3)n2n1)C1(F)CC1
reported property: IC50
observed: > 500 nM
--
molecule: O=C(Nc1nc2cccc(-c3ccc(CN4CCS(=O)(=O)CC4)s3)n2n1)[C@H]1C[C@H]1F (relative stereo)
reported property: IC50
observed: 50 to 500 nM
--
molecule: O=C(Nc1nc2cccc(-c3ccc(CN4CCS(=O)(=O)CC4)s3)n2n1)[C@H]1C[C@H]1C(F)(F)F
reported property: IC50
observed: > 500 nM
--
molecule: CC1(C(=O)Nc2nc3cccc(-c4ccc(CN5CCS(=O)(=O)CC5)s4)n3n2)CC1(F)F (centres unmarked)
reported property: IC50
observed: > 500 nM
--
molecule: Cc1cc(-c2cccc3nc(NC(=O)C4CC4)nn23)sc1CN1CCC(F)(F)CC1
reported property: IC50
observed: 30 to 50 nM
--
molecule: O=C(Nc1nc2cccc(-c3ccc(COCCc4cn[nH]c4)s3)n2n1)C1CC1
reported property: IC50
observed: > 500 nM

----------
IC50: recorded values
biological target: JAK3 (Homo sapiens, UniProt P52333); assay: JAK kinase inhibitory activity, HTRF biochemical assay
Sequence (P52333 whole entry, species assumed): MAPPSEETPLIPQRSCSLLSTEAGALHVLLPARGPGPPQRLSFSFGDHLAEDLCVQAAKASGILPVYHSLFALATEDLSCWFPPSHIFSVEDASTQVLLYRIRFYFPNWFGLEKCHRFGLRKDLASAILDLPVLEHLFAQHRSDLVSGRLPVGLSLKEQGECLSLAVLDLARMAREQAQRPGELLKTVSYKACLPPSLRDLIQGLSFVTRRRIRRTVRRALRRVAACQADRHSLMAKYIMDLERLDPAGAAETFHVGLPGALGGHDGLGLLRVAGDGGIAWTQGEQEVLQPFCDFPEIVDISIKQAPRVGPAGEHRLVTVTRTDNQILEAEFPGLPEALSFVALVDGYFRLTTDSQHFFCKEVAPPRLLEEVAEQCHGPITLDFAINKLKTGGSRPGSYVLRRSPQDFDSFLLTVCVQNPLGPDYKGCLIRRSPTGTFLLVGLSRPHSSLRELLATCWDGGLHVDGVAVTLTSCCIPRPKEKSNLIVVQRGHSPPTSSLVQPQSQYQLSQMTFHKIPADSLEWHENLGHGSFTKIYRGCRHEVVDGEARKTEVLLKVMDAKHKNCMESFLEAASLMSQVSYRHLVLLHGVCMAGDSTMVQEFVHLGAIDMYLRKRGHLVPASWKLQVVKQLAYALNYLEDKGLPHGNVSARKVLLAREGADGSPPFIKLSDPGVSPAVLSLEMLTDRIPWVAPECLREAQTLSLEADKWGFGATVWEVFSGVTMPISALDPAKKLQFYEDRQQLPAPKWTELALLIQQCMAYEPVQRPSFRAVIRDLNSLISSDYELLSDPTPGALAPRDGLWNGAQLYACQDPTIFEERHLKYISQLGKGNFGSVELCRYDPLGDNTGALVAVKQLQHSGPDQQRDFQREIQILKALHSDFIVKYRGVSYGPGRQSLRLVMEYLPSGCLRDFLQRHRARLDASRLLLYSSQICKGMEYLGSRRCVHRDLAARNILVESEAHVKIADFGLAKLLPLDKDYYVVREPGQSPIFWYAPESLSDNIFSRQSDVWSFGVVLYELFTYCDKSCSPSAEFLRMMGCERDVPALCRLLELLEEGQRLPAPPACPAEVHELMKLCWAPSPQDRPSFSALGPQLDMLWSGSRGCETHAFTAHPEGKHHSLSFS

compound: O=C(Nc1nc2cccc(-c3ccc(CN4CCS(=O)(=O)CC4)s3)n2n1)C1CC1 [EXP-1]
IC50: 50 to 500 nM

compound: O=C(Nc1nc2cccc(-c3ccc(CN4CCS(=O)(=O)CC4)s3)n2n1)[C@H]1C[C@@H]1F [EXP-6]
IC50: > 500 nM

compound: O=C(Nc1cn2c(-c3ccc(CN4CCS(=O)(=O)CC4)s3)cccc2n1)[C@H]1C[C@@H]1F (relative stereo) [EXP-3]
IC50: > 500 nM

----------
Biological target: TYK2 (Homo sapiens, UniProt P29597)
Sequence (P29597 whole entry, species assumed): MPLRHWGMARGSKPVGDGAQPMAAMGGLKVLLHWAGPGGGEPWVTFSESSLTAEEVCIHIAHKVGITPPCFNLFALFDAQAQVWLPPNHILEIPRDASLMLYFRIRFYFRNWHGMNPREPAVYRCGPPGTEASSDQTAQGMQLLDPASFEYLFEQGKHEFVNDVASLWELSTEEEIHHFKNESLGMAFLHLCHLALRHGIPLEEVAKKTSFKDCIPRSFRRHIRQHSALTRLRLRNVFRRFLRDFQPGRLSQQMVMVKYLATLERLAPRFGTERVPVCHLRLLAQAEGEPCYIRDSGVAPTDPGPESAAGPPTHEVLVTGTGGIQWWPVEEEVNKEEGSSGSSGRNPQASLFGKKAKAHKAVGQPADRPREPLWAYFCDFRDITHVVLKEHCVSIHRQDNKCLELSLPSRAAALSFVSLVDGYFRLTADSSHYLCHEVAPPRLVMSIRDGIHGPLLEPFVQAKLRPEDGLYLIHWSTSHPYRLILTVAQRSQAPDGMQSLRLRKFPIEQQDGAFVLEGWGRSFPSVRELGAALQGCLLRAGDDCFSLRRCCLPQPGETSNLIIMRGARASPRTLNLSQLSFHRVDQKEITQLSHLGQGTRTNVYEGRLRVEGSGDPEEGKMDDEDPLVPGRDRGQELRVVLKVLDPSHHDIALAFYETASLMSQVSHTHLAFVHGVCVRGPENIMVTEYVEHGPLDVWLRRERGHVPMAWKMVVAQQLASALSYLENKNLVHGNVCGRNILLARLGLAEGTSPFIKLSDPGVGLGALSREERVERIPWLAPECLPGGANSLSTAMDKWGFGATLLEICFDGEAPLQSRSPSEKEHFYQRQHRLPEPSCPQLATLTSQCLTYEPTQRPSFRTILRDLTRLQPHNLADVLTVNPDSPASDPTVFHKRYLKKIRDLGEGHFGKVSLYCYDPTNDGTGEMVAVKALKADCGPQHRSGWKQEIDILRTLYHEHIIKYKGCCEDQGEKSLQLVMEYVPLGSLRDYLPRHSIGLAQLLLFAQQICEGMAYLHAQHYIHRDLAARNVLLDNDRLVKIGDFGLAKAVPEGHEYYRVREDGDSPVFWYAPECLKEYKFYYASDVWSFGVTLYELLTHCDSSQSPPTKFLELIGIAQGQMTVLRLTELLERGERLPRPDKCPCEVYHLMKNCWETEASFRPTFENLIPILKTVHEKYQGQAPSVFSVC
Assay: JAK kinase inhibitory activity, HTRF biochemical assay
Protocol: The compounds of the above embodiments were applied to the detection and screening of JAK kinase inhibitory activity. A corresponding volume of DMSO was added to each well of a first 96-well plate. 20-30 μL of 100-200 μM stock solution of different test compounds were added to each well. The mixture was shaken and mixed for 3 min. All of the compounds were subjected to 3× serial dilution. […] The percentage of inhibition was calculated based on the following formula: […]
reported property: IC50

compound: O=C(Nc1cn2c(-c3ccc(CN4CCS(=O)(=O)CC4)s3)cccc2n1)[C@H]1C[C@@H]1F (relative stereo) [EXP-3]
observed: > 500 nM

compound: O=C(Nc1nc2cccc(-c3ccc(CN4CCS(=O)(=O)CC4)s3)n2n1)[C@H]1C[C@@H]1F [EXP-6]
observed: > 500 nM

compound: O=C(Nc1nc2cccc(-c3ccc(CN4CCS(=O)(=O)CC4)s3)n2n1)C1CC1 [EXP-1]
observed: > 500 nM

// data source = patent US20220274983A1
